system: SNB-78 CNS; assay: NCI tumour cell line growth inhibition, 48 h

# Compound, Study system, TGI
measured = [
    ("CCCCCCC(=O)C/C(=N/NC(N)=S)C(=O)NC1C2CC3CC(C2)CC1C3 (stereo not given)", "SNB-78 CNS", "> 100 µM"),
    ("C=CC1(C)CCC2=C(CCC3C(C)(C(=O)OC)CCCC23C)C1=O (stereo not given)", "SNB-78 CNS", "80.1 µM"),
    ("COc1cccc(/C=C2\\C(=O)N(C(=O)c3ccc(NC(C)=O)cc3)N=C2C)c1", "SNB-78 CNS", "> 100 µM"),
    ("COc1ccc(CNc2nc3cc(C(F)(F)F)ccc3nc2C)cc1OC", "SNB-78 CNS", "55.8 µM"),
    ("C=CCc1cc(-c2cc(CC=C)c(O)c(CNCCCl)c2)cc(CNCCCl)c1O", "SNB-78 CNS", "> 100 µM"),
    ("Cc1ccc(-c2cc(=O)c3cc(C)c(C)c(C(=O)O)c3o2)cc1C", "SNB-78 CNS", "> 100 µM"),
    ("COc1cccc(N2C(=O)[C@H]3CC(C)c4c([nH]c5ccccc45)[C@H]3C2=O)c1 (stereo not given in full)", "SNB-78 CNS", "> 100 µM"),
    ("Clc1ccccc1/C=C/c1cscn1", "SNB-78 CNS", "> 100 µM"),
    ("c1cc[c]([Pb]([c]2ccccc2)[c]2ccccc2)cc1", "SNB-78 CNS", "> 100 µM"),
    ("CC(C)c1ccc(C(c2ccc(OCC(=O)O)cc2)c2ccc(C(C)C)cc(=O)c2O)c(O)c(=O)c1", "SNB-78 CNS", "56.7 µM"),
    ("OC/C=C(\\I)CCCOCOCc1ccccc1", "SNB-78 CNS", "> 100 µM"),
    ("CN(C)C(c1ccccc1)C(O)c1ccccc1 (stereo not given)", "SNB-78 CNS", "> 100 µM"),
    ("O=C1NC2OCC(O)C(O)C2O1 (stereo not given)", "SNB-78 CNS", "> 100 µM"),
    ("Fc1ccc(C2SCc3nc4ccccc4n32)cc1Cl (stereo not given)", "SNB-78 CNS", "> 100 µM"),
    ("CCOC(=O)CCn1[nH]c(=O)c(Cl)c(Cl)c1=O", "SNB-78 CNS", "> 100 µM"),
    ("N#C/C(=C\\c1cc2ccccc2c2ccccc12)c1ccccc1", "SNB-78 CNS", "34.2 µM"),
    ("CCN(CC)CC(=O)O[C@]1(CC)C(=O)OCc2c1cc1n(c2=O)Cc2cc3ccccc3nc2-1", "SNB-78 CNS", "> 100 µM"),
    ("CS(=O)(=O)c1cc(=O)c2ccccc2s1", "SNB-78 CNS", "14 µM"),
    ("CC(=O)N1C/C(=C\\c2ccc(N(C)C)cc2)C(=O)/C(=C/c2ccc(N(C)C)cc2)C1", "SNB-78 CNS", "> 100 µM"),
    ("Cc1ccc(S(=O)(=O)OC(c2ccc(Cl)cc2Cl)C2OC(=O)c3ccccc32)cc1 (stereo not given)", "SNB-78 CNS", "> 100 µM"),
]

###

system: TK-10 renal; test: NCI tumour cell line growth inhibition, 48 h

# Compound, TGI
rows = [
    ("COC(=O)[C@H](Cc1c[nH]c2ccccc12)NC(=O)[C@@H](OC)[C@@H]1Cc2cc3cc(OC4CC(OC5CC(O)C(O)C(C)O5)C(O)C(C)O4)c(C)c(O)c3c(O)c2C(=O)[C@H]1OC1CC(OC2CC(OC3CC(C)(O)C(O)C(C)O3)C(O)C(C)O2)C(O)C(C)O1 (some centres undefined)", "> 6.46 µM"),
    ("COC(=O)C1C(=O)C=CN([C@H](C)c2ccccc2)[C@@H]1Cc1ccc(OC)c(OCc2ccccc2)c1I (some centres undefined)", "60.4 µM"),
    ("CCOP(=O)(O)C1C(CO)OC(n2ccc(=O)[nH]c2=O)C1O (centres undefined)", "> 100 µM"),
    ("O=C(O)Cc1cccc2c1OC(c1ccccc1)C(Cl)(C(=O)c1ccccc1)C2=O (centres undefined)", "37.2 µM"),
    ("C/C=C1/C(=C/c2[nH]c(/C=c3\\[nH]/c(=C/C4=NC(=O)C(CC)=C4C)c(C)c3CCC(=O)O)c(CCC(=O)O)c2C)NC(=O)C1C (centres undefined)", "> 150 µg/mL"),
    ("CCC(=O)c1c(C(F)(F)F)n([O-])c2ccc(C)cc2[n+]1=O", "6.61 µM"),
    ("O=C1C=CC=C/C1=C1\\N=C(c2ccccc2OCC(=O)c2ccc(Br)cc2)SS1", "> 100 µM"),
    ("Cn1c(=O)c2[nH]c(CCCCC(=O)O)nc2n(C)c1=O", "> 100 µM"),
    ("O=C1N[C@@H](c2c[nH]c3cc(Br)ccc23)C(=O)N[C@H]1c1c[nH]c2cc(Br)ccc12", "> 100 µM"),
    ("COC(=O)CCc1cc(O)c2c(c1)C(C(=O)OC)C(c1ccc(O)c(O)c1)O2 (centres undefined)", "> 100 µM"),
    ("CCCCCCC(=O)C/C(=N/NC(N)=S)C(=O)NC1C2CC3CC(C2)CC1C3 (centres undefined)", "> 100 µM"),
    ("CO[C@H]1C=C[C@@]23c4cc5c(cc4CO[C@]2(O)CN(C)[C@H]3C1)OCO5", "> 100 µM"),
    ("CC(C)CCCC(=O)CCCCCCC(=O)CCN(O)C(=O)C(N)CO (centres undefined)", "32.2 µM"),
    ("O=C1OC(c2ccco2)=N/C1=C\\c1cccc([N+](=O)[O-])c1", "> 100 µM"),
    ("CC(=O)OCCOCn1cnc2c(Cl)nc(Cl)nc21", "> 100 µM"),
    ("Cc1[nH]n(C2=NCCN2)c(=O)c1Cc1ccccc1", "> 100 µM"),
    ("O=[N+]([O-])c1cccc2nc3ccccc3c(NCCC[N+]3([O-])CCOCC3)c12", "3.33 µM"),
    ("Fc1ccc(C2SCc3nc4ccccc4n32)cc1Cl (centres undefined)", "67.1 µM"),
    ("CCCCCN(CCCCC)CC(O)c1ccc(Cl)c2ccccc12 (centres undefined)", "33.9 µM"),
]

###

tested on: ACHN renal; assay: NCI tumour cell line growth inhibition, 48 h; in the data active = GI50 below about 0.43 µM; inactive = the rest
Classes used: active, inactive

# Compound, Assigned category
data = [
    ("Cc1ccc(NC(=O)NCCCOc2ccc(N3C(N)=NC(N)=NC3(C)C)cc2Cl)cc1S(=O)(=O)F", "inactive"),
    ("COC(=O)c1c(C)[nH]c(/C=C2\\N=C(c3ccc[nH]3)C=C2OC)c1C", "active"),
    ("C/C=C1/C(=C/c2[nH]c(/C=c3\\[nH]/c(=C/C4=NC(=O)C(CC)=C4C)c(C)c3CCC(=O)O)c(CCC(=O)O)c2C)NC(=O)C1C (stereo not drawn)", "inactive"),
    ("CCC(=O)c1c(C(F)(F)F)n([O-])c2ccc(C)cc2[n+]1=O", "inactive"),
    ("O=C(/C(=C/c1cccc([N+](=O)[O-])c1)c1ccccc1)c1ccccc1", "inactive"),
    ("Cc1ccc(C(=O)Nc2ccc(CN3CCN(C)CC3)c(C(F)(F)F)c2)cc1C#Cc1cnc(N)c2ccccc12", "active"),
    ("O=S1(=O)N(CCNc2nccc(-c3c(-c4cccc(O)c4)nc4sccn34)n2)CCN1Cc1ccccc1", "inactive"),
    ("COc1cc2c3c(n(CCNCCCNCCn4c5c(c6cc(OC)c(OC)cc6c4=O)C(=O)c4ccccc4-5)c(=O)c2cc1OC)-c1ccccc1C3=O", "inactive"),
]

###

Quick reference for TGI among some compounds
system: MOLT-4 leukemia; assay: NCI tumour cell line growth inhibition, 48 h
Readout name: TGI

# Compound, Study system, Readout name, Observed measurement
measured = [
    ("CC(C)Oc1ccc2c(c1)OCC1Cc3ccccc3OC21 (stereo not drawn)", "MOLT-4 leukemia", "TGI", "> 100 µM"),
    ("COc1cc2c3c(n(CCNCCCNCCn4c5c(c6cc(OC)c(OC)cc6c4=O)C(=O)c4ccccc4-5)c(=O)c2cc1OC)-c1ccccc1C3=O", "MOLT-4 leukemia", "TGI", "0.0432 µM"),
    ("CCN(CC)CCCC(C)Nc1cnc(C(=O)Nc2cccc3ccc(OC)nc23)cn1 (stereo not drawn)", "MOLT-4 leukemia", "TGI", "4.67 µM"),
    ("CC12CCC([C@H](C(O)C3CCCCC3)C1=O)C2(C)C (stereo partly drawn)", "MOLT-4 leukemia", "TGI", "> 100 µM"),
    ("COc1ccc(C2=Nn3c(nnc(Cc4ccc(Cl)cc4)c3=O)SC2)cc1", "MOLT-4 leukemia", "TGI", "> 100 µM"),
    ("CSC1=N/C(=C\\c2ccccc2)C(=O)N1CN1CCCCC1", "MOLT-4 leukemia", "TGI", "> 100 µM"),
    ("COc1ccc(C2SCC(=O)N2NC(=O)Nc2c(C)nc3ccccn23)cc1 (stereo not drawn)", "MOLT-4 leukemia", "TGI", "> 100 µM"),
    ("O=C1NCCCNCCCNCCCNC(=O)c2cccc1n2", "MOLT-4 leukemia", "TGI", "> 100 µM"),
    ("CC(=NNC(=S)Nc1ccc(C)cc1)c1cccc(C(C)=NNC(=S)Nc2ccc(C)cc2)n1", "MOLT-4 leukemia", "TGI", "22.9 µM"),
    ("CCn1c2ccccc2n2c(=O)c3c(c(C#N)c12)CCCC3", "MOLT-4 leukemia", "TGI", "> 100 µM"),
    ("COc1cc2c3c(n(C)c(=O)c2cc1OC)-c1cc2c(cc1/C3=C\\CNCCCN)OCO2", "MOLT-4 leukemia", "TGI", "0.0502 µM"),
    ("COc1ccc(-n2cc(-c3cc(OC)c(OC)c(OC)c3)[nH]c2=O)cc1Cl", "MOLT-4 leukemia", "TGI", "> 100 µM"),
    ("CCn1c(SCC(=O)NNC(=S)Nc2ccc(C)cc2)nc2ccccc2c1=O", "MOLT-4 leukemia", "TGI", "> 100 µM"),
    ("COc1cc2c(c(OC)c1OC)C(=O)[C@@H]1c3ccc([N+](=O)[O-])cc3C(=O)N(CCCBr)[C@H]21", "MOLT-4 leukemia", "TGI", "> 100 µM"),
    ("CCC(=O)c1c(C(F)(F)F)n([O-])c2ccc(C)cc2[n+]1=O", "MOLT-4 leukemia", "TGI", "> 50 µM"),
    ("CNc1nc2n(CCO)c(-c3ccccc3)c(-c3ccccc3)nc-2c(=O)n1", "MOLT-4 leukemia", "TGI", "> 50 µM"),
    ("Cc1ccc2[nH]c(C(=O)NN3C(=O)C(C)SC34CCCC(C)C4)c(-c3ccccc3)c2c1 (stereo not drawn)", "MOLT-4 leukemia", "TGI", "> 100 µM"),
    ("COC(=O)C(=O)C(C(=O)C=C(C)C)C(=O)C(=O)Nc1ccc(C)cc1C (stereo not drawn)", "MOLT-4 leukemia", "TGI", "> 100 µM"),
    ("O=C(N/N=C\\c1cccc(O)c1)c1ccncc1", "MOLT-4 leukemia", "TGI", "> 100 µM"),
    ("O=[N+]([O-])c1cccc2nc3ccccc3c(NCCC[N+]3([O-])CCOCC3)c12", "MOLT-4 leukemia", "TGI", "> 100 µM"),
    ("O=C1C(Cl)C(c2cccc(Cl)c2)N1c1ccc(-n2c(=S)[nH]c3ccccc3c2=O)cc1 (stereo not drawn)", "MOLT-4 leukemia", "TGI", "37.6 µM"),
    ("C=C1CC[C@H](O)C(C)(C)[C@@H]1CC/C(C)=C/CC/C=C(\\C)CC/C=C(\\C)CCC=C(C)C", "MOLT-4 leukemia", "TGI", "> 100 µM"),
    ("CSc1nc2cc(S(=O)(=O)N3CCCCC3)ccc2s1", "MOLT-4 leukemia", "TGI", "> 100 µM"),
    ("Cc1cc(C)n(C2OC(CO)C(O)C(O)C2O)c(=S)c1C#N (stereo not drawn)", "MOLT-4 leukemia", "TGI", "> 100 µM"),
    ("COc1cc(NS(=O)(=O)c2ccc(-c3cnc(C4CC4)o3)cc2)ccc1F", "MOLT-4 leukemia", "TGI", "> 100 µM"),
    ("COc1cc2c(c(OC)c1)C1(CC(CC#N)C2)SCCS1 (stereo not drawn)", "MOLT-4 leukemia", "TGI", "> 100 µM"),
    ("CCOP(=O)(O)C1C(CO)OC(n2ccc(=O)[nH]c2=O)C1O (stereo not drawn)", "MOLT-4 leukemia", "TGI", "> 100 µM"),
    ("Cc1ccc(NC(=S)N/N=C(/c2ccccc2)c2ccccn2)cc1", "MOLT-4 leukemia", "TGI", "> 12.3 µM"),
]

Source: PubChem BioAssay (NCI)
